test system: SN12C renal; assay: NCI tumour cell line growth inhibition, 48 h
The entries below are paired with their reported TGI.

Query: Lab note: need TGI for CCN1N=CSC12C(=O)N(c1ccccc1)C(=O)N2c1ccccc1 (stereo not drawn) on SN12C renal, anyone have it?
Result: > 100 µM

Query: Can you check C[C@H]1ON2CCC[C@@H]2[C@@H]1C(=O)N1C2CC3CCC2(CS1(=O)=O)C3(C)C (stereo partly drawn) next?
Result: > 100 µM

Query: Moving on to the next compound: C[N+](C)(C)C(Cc1c[nH]c(=S)[nH]1)C(=O)O (stereo not drawn)
Result: > 100 µM

----------
test system: OVCAR-3 ovarian; experiment: NCI tumour cell line growth inhibition, 48 h
measured-metric: TGI (µM)
Answer in µM, number only, no unit symbol.

{"columns": ["compound", "measurement-unit", "TGI"],
 "data": [
  ["Cc1ccc(S(=O)(=O)OC(C=O)C(O)C(O)COC(c2ccccc2)(c2ccccc2)c2ccccc2)cc1 (stereo not drawn)", "µM", 28.1]
]}

As a next step, examine the compound that follows.
Query: Reported TGI, compound `COc1cccc2c(=O)c3c(O)c4cc(N(C)C)ccc4c(OC(C)=O)c3oc12` : ____
Result: 13.6
